biological target: Receptor-type tyrosine-protein kinase FLT3 (Homo sapiens, UniProt P36888, D835Y)
So basically, if IC50 comes in under 4 nM it's 1, and if it's 4 nM or more it's -1.

Solved cases (8 shown):
> print(dat)
                                 cpd.smiles  cat
1  CC(C)(O)CC(=O)N1CCc2cc(Nc3ncc(C(F)(F)F)c(NCCCN)n3)ccc2C1    1
2  CC(C)(O)C(=O)N1CCc2cc(Nc3ncc(C(F)(F)F)c(N[C@H]4CC[C@@H](N)CC4)n3)ccc2C1    1
3  CC(C)(O)C(=O)N1CCc2nc(Nc3ncc(C(F)(F)F)c(N[C@H]4CC[C@@H](N)CC4)n3)ccc2C1   -1
4  CC(C)(O)CC(=O)N1CCc2cc(Nc3ncc(C(F)(F)F)c(NC[C@H]4CCCNC4)n3)ccc2C1   -1
5  CC(=O)N1CCc2cc(Nc3ncc(C(F)(F)F)c(N[C@H]4CC[C@@H](N)CC4)n3)ccc21    1
6  CN1CCc2cc(Nc3ncc(C(F)(F)F)c(N[C@H]4CC[C@@H](N)CC4)n3)ccc2C1=O    1
7  CC(C)(O)CC(=O)N1CCc2cc(Nc3ncc(C(F)(F)F)c(NCC4CCNCC4)n3)ccc2C1   -1
8  CC(C)(N)CNc1nc(Nc2ccc3c(c2)CCN(C(=O)CC(C)(C)O)C3)ncc1C(F)(F)F   -1

### Prompt Is IC50 of `CC(C)(O)CC(=O)N1CCc2cc(Nc3ncc(C(F)(F)F)c(NC[C@@H]4CCCNC4)n3)ccc2C1` strictly below 4 nM?
### Response -1

### Prompt Is IC50 of `CC(C)(O)CC(=O)N1CCc2cc(Nc3ncc(C(F)(F)F)c(NCC(C)(C)CN)n3)ccc2C1` strictly below 4 nM?
### Response -1

### Prompt Is IC50 of `CC(=O)N1CCc2ccc(Nc3ncc(C(F)(F)F)c(N[C@H]4CC[C@@H](N)CC4)n3)cc21` strictly below 4 nM?
### Response -1

### Prompt Is IC50 of `CC(C)(O)C(=O)N1CCc2ccc(Nc3ncc(C(F)(F)F)c(N[C@H]4CC[C@@H](N)CC4)n3)cc2C1` strictly below 4 nM?
### Response 1

### Prompt Is IC50 of `CC(=O)N1CCc2cc(Nc3ncc(C(F)(F)F)c(N[C@H]4CC[C@@H](N)CC4)n3)ccc2C1` strictly below 4 nM?
### Response 1

### Prompt Is IC50 of `CC(=O)NCCCNc1nc(Nc2ccc3c(c2)CCN(C(=O)CC(C)(C)O)C3)ncc1C(F)(F)F` strictly below 4 nM?
### Response -1

### Prompt Is IC50 of `CCn1ccc2cc(Nc3ncc(C(F)(F)F)c(N[C@H]4CC[C@@H](N)CC4)n3)ccc2c1=O` strictly below 4 nM?
### Response 1

### Prompt Is IC50 of `CC(C)(O)Cn1ccc2cc(Nc3ncc(C(F)(F)F)c(NC4CC5(CNC5)C4)n3)ccc2c1=O` strictly below 4 nM?
### Response -1

### Prompt Is IC50 of `CC(C)(O)Cn1cnc2cc(Nc3ncc(C(F)(F)F)c(N[C@H]4CC[C@@H](N)CC4)n3)ccc2c1=O` strictly below 4 nM?
### Response -1

### Prompt Is IC50 of `CC(C)(O)CC(=O)N1CCc2nc(Nc3ncc(C(F)(F)F)c(N[C@H]4CC[C@@H](N)CC4)n3)ccc2C1` strictly below 4 nM?
### Response -1

### Prompt Is IC50 of `CC(C)(O)C(=O)N1Cc2ccc(Nc3ncc(C(F)(F)F)c(N[C@H]4CC[C@@H](N)CC4)n3)cc2C1` strictly below 4 nM?
### Response 1

### Prompt Is IC50 of `CC(C)(O)Cn1ncc2cc(Nc3ncc(C(F)(F)F)c(N[C@H]4CC[C@@H](N)CC4)n3)ccc2c1=O` strictly below 4 nM?
### Response 1

### Prompt Is IC50 of `CC(C)(O)CC(=O)N1CCc2cc(Nc3ncc(C(F)(F)F)c(N[C@H]4CC[C@H](N)CC4)n3)ccc2C1` strictly below 4 nM?
### Response -1

### Prompt Is IC50 of `CC(C)(O)CC(=O)N1CCc2cc(Nc3ncc(C(F)(F)F)c(N[C@H]4CC[C@@H](N)CC4)n3)ccc21` strictly below 4 nM?
### Response 1

### Prompt Is IC50 of `CC(C)(O)CC(=O)N1CCc2cc(Nc3ncc(C(F)(F)F)c(NCCCNS(C)(=O)=O)n3)ccc2C1` strictly below 4 nM?
### Response -1

* * *

Let's go through some recorded pIC50 values for Serine/threonine-protein kinase Chk1 (Homo sapiens, UniProt O14757) together.
Convention used: pIC50 is expressed as -log10 of the molar concentration.

Worked cases, pIC50 given:
> print(dat)
                                 cpd.smiles  result.value
1  CNCCCNc1nc(Nc2ccc3c(c2)CCN(C(=O)CC(C)(C)O)C3)ncc1C(F)(F)F          7.21
2  CC(C)(O)Cn1ccc2cc(Nc3ncc(C(F)(F)F)c(N[C@H]4CC[C@@H](N)CC4)n3)ccc2c1=O          6.91
3  CC(=O)N1CCc2nc(Nc3ncc(C(F)(F)F)c(N[C@H]4CC[C@@H](N)CC4)n3)ccc2C1          6.52
4  N[C@H]1CC[C@@H](Nc2nc(Nc3ccc4c(c3)CCN(C(=O)CO)C4)ncc2C(F)(F)F)CC1          7.75
5  CC(C)(O)CC(=O)N1CCc2cc(Nc3ncc(C(F)(F)F)c(N[C@@H]4CCCNC4)n3)ccc2C1          7.45
6  CN1CCc2cc(Nc3ncc(C(F)(F)F)c(N[C@H]4CC[C@@H](N)CC4)n3)ccc2C1=O          7.93

### Prompt Let me know recorded pIC50 for `CC(C)(O)Cn1ccc2cc(Nc3ncc(C(F)(F)F)c(NC4CC5(CNC5)C4)n3)ccc2c1=O` , thanks.
### Response 7.10

### Prompt Let me know recorded pIC50 for `CC(C)(O)Cn1ncc2cc(Nc3ncc(C(F)(F)F)c(N[C@H]4CC[C@@H](N)CC4)n3)ccc2c1=O` , thanks.
### Response 7.17

### Prompt Let me know recorded pIC50 for `CC(C)(O)CC(=O)N1CCc2nc(Nc3ncc(C(F)(F)F)c(N[C@H]4CC[C@@H](N)CC4)n3)ccc2C1` , thanks.
### Response 6.44

* * *

Let's go through some recorded pIC50 values for Receptor-type tyrosine-protein kinase FLT3 (Homo sapiens, UniProt P36888, D835Y) together.
Convention used: pIC50 is expressed as -log10 of the molar concentration.

Worked cases, pIC50 given:
> print(dat)
                                 cpd.smiles  result.value
1  CC(C)(O)Cn1ccc2cc(Nc3ncc(C(F)(F)F)c(N[C@H]4C[C@H]5CC[C@@H](C4)N5)n3)ccc2c1=O          6.31
2  N[C@H]1CC[C@@H](Nc2nc(Nc3ccc4c(c3)CCN(C(=O)CO)C4)ncc2C(F)(F)F)CC1          9.34
3  CC(C)(O)CC(=O)N1CCc2ccc(Nc3ncc(C(F)(F)F)c(N[C@H]4CC[C@@H](N)CC4)n3)cc2C1          8.68

### Prompt Let me know recorded pIC50 for `C[C@@H](O)C(=O)N1CCc2cc(Nc3ncc(C(F)(F)F)c(N[C@H]4CC[C@@H](N)CC4)n3)ccc2C1` , thanks.
### Response 8.90

* * *

Target: Serine/threonine-protein kinase Chk1 (Homo sapiens)
Sequence (O14757 whole entry): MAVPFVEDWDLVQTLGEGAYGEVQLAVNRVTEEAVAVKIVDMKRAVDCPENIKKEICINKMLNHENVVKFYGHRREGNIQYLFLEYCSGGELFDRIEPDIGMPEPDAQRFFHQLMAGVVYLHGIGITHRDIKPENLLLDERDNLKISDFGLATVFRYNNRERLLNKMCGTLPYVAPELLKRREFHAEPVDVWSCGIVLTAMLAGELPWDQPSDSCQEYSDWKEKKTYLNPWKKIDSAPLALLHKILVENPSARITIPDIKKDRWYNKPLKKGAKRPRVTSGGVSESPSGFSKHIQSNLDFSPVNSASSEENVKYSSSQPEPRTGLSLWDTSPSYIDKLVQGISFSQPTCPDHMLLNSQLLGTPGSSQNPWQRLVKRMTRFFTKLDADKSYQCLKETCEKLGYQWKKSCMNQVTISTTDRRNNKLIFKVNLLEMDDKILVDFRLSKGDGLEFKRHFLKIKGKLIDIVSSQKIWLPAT
result type: pIC50
Convention used: pIC50 is expressed as -log10 of the molar concentration.

Worked cases, pIC50 given:
> print(dat)
                                 cpd.smiles  result.value
1  CC(C)(N)CNc1nc(Nc2ccc3c(c2)CCN(C(=O)CC(C)(C)O)C3)ncc1C(F)(F)F          5.70
2  C[C@H](O)C(=O)N1CCc2cc(Nc3ncc(C(F)(F)F)c(N[C@H]4CC[C@@H](N)CC4)n3)ccc2C1          8.29
3  CC(=O)N1CCc2ccc(Nc3ncc(C(F)(F)F)c(N[C@H]4CC[C@@H](N)CC4)n3)cc21          7.24
4  CC(C)(O)CC(=O)N1CCc2cc(Nc3ncc(C(F)(F)F)c(N[C@H]4CC[C@@H](N)CC4)n3)ccc21          7.72
5  CC(=O)N1Cc2ccc(Nc3ncc(C(F)(F)F)c(N[C@H]4CC[C@@H](N)CC4)n3)cc2C1          7.88
6  CC(C)(O)CC(=O)N1CCc2cc(Nc3ncc(C(F)(F)F)c(N[C@H]4CC[C@@H](N)CC4)n3)ccc2C1          8.01
7  CC(C)(O)C(=O)N1CCc2nc(Nc3ncc(C(F)(F)F)c(N[C@H]4CC[C@@H](N)CC4)n3)ccc2C1          6.60
8  CC(C)(O)Cn1cnc2cc(Nc3ncc(C(F)(F)F)c(N[C@H]4CC[C@@H](N)CC4)n3)ccc2c1=O          6.69
9  CC(C)(O)C(=O)N1Cc2ccc(Nc3ncc(C(F)(F)F)c(N[C@H]4CC[C@@H](N)CC4)n3)cc2C1          7.87

Let us move to another entry and its pIC50.
### Prompt Let me know recorded pIC50 for `Cn1cnc2cc(Nc3ncc(C(F)(F)F)c(N[C@H]4CC[C@@H](N)CC4)n3)ccc2c1=O` , thanks.
### Response 6.65
